Target: thrombin (IIa) (Homo sapiens)
Construct: 0.5 nM human thrombin (IIa)
Assay: Fluorogenic enzyme assay (Example 5)
Type: biochemical
Conditions: Table 7
QUANTITY: kcat /Km, IIa

# MOLECULE, QUANTITY, OBSERVED RESULT
rows = [
    ("Br.CCCCCNS(=O)(=O)c1cccc2cc(NC(=O)[C@H](CCCNC(=N)N)NC(=O)OCc3ccccc3)ccc12 [(N^α -Z)ArgANSNR1 R2; H; C5 H11]", "kcat /Km, IIa", "242 M⁻¹ s⁻¹"),
    ("Br.N=C(N)NCCC[C@H](NC(=O)OCc1ccccc1)C(=O)Nc1ccc2c(S(=O)(=O)NCc3ccccc3)cccc2c1 [(N^α -Z)ArgANSNR1 R2; H; benzyl]", "kcat /Km, IIa", "1680 M⁻¹ s⁻¹"),
    ("Br.CC(C)(C)NS(=O)(=O)c1cccc2cc(NC(=O)[C@H](CCCNC(=N)N)NC(=O)OCc3ccccc3)ccc12 [(N^α -Z)ArgANSNR1 R2; H; t-C4 H9]", "kcat /Km, IIa", "930 M⁻¹ s⁻¹"),
]

====

Target: activated protein C (APC) (Homo sapiens)
Sequence (P04070 212-461 limits assumed): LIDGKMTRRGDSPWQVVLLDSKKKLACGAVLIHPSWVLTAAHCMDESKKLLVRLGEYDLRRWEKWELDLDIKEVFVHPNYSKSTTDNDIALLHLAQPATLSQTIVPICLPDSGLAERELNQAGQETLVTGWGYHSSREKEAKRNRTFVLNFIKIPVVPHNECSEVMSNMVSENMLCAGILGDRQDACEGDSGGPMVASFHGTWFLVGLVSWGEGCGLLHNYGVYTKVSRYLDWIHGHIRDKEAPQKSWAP
Sequence (P04070 43-197 limits assumed): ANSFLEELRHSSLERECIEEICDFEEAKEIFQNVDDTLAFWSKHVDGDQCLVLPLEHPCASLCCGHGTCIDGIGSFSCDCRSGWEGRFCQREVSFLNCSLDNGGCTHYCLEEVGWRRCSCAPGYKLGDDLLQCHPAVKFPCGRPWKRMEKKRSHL
Experiment: Fluorogenic enzyme assay (Example 5)
Type: biochemical
Set-up: key: Slow substrate hydrolysis, no kinetic constants calculated
Conditions: Table 7
QUANTITY: Hydrolysis kinetic constants, APC (symbol b)

# LINE NOTATION, OBSERVED RESULT
records = [
    ("Br.CN(C)S(=O)(=O)c1cccc2cc(NC(=O)[C@H](CCCNC(=N)N)NC(=O)OCc3ccccc3)ccc12", "b"),
    ("Br.N=C(N)NCCC[C@H](NC(=O)OCc1ccccc1)C(=O)Nc1ccc2c(S(=O)(=O)N3CCCCCC3)cccc2c1", "b"),
    ("Br.N=C(N)NCCC[C@H](NC(=O)OCc1ccccc1)C(=O)Nc1ccc2c(S(=O)(=O)N3CCOCC3)cccc2c1", "b"),
    ("Br.CNS(=O)(=O)c1cccc2cc(NC(=O)[C@H](CCCNC(=N)N)NC(=O)OCc3ccccc3)ccc12", "b"),
]

====

The following molecules are listed with their measured TIME TO 10% HYDROLYSIS (HOURS), u-PA values.
Biological target: urokinase (u-PA) (Homo sapiens, UniProt P00749)
Test: Fluorogenic enzyme assay (Example 5)
Assay type: biochemical
Settings: 100 nM enzyme, substrate 1 μM
QUANTITY: TIME TO 10% HYDROLYSIS (HOURS), u-PA (h)

# LINE NOTATION, TEST SYSTEM, OBSERVED RESULT
measured = [
    ("CC(C)C[C@@H](NC(=O)OCc1ccccc1)C(=O)N1CCC[C@H]1C(=O)N[C@@H](CCCNC(=N)N)C(=O)Nc1ccc2c(S(=O)(=O)N3CCCCC3)cccc2c1", "urokinase (u-PA) (Homo sapiens, UniProt P00749)", 1),
    ("Br.Br.Br.N=C(N)NCCC[C@H](NC(=O)CNC(=O)CN)C(=O)N[C@@H](CCCNC(=N)N)C(=O)Nc1ccc2c(S(=O)(=O)NC3CCCCC3)cccc2c1", "urokinase (u-PA) (Homo sapiens, UniProt P00749)", 24),
    ("CCCNS(=O)(=O)c1cccc2cc(NC(=O)[C@H](CCCNC(=N)N)NC(=O)[C@H](Cc3ccccc3)NC(=O)[C@@H]3CCCN3)ccc12.Cl.Cl", "urokinase (u-PA) (Homo sapiens, UniProt P00749)", 6),
]

====

Target: activated protein C (APC) (Homo sapiens)
Experiment: Fluorogenic enzyme assay (Example 5)
Assay type: biochemical
Details: Table 9
The following compounds are listed with their measured Km values.

# LINE NOTATION, MEASURE UNIT, Km
rows = [
    ("N=C(N)NCCC[C@H](NC(=O)CNC(=O)CNC(=O)OCc1ccccc1)C(=O)N[C@@H](CCCNC(=N)N)C(=O)Nc1ccc2c(S(=O)(=O)NC3CCCCC3)cccc2c1", "µM", 320),
    ("CCCNS(=O)(=O)c1cccc2cc(NC(=O)[C@H](CCCNC(=N)N)NC(=O)[C@H](Cc3ccccc3)NC(=O)[C@@H]3CCCN3)ccc12.Cl.Cl", "µM", 240),
    ("Br.Br.CC(C)C[C@@H](N)C(=O)N1CCC[C@H]1C(=O)N[C@@H](CCCNC(=N)N)C(=O)Nc1ccc2c(S(=O)(=O)N3CCCCC3)cccc2c1", "µM", 160),
    ("Br.Br.Br.N=C(N)NCCC[C@H](NC(=O)CNC(=O)CN)C(=O)N[C@@H](CCCNC(=N)N)C(=O)Nc1ccc2c(S(=O)(=O)NC3CCCCC3)cccc2c1", "µM", 267),
    ("CC(C)C[C@@H](NC(=O)OCc1ccccc1)C(=O)N1CCC[C@H]1C(=O)N[C@@H](CCCNC(=N)N)C(=O)Nc1ccc2c(S(=O)(=O)N3CCCCC3)cccc2c1", "µM", 246),
    ("Cc1ccc(S(=O)(=O)NCC(=O)N2CCC[C@H]2C(=O)N[C@@H](CCCNC(=N)N)C(=O)Nc2ccc3c(S(=O)(=O)NCC(C)C)cccc3c2)cc1", "µM", 800),
]

====

Target: urokinase (u-PA) (Homo sapiens, UniProt P00749)
Test: Fluorogenic enzyme assay (Example 5)
Assay type: biochemical
Conditions: enzyme 100 nM, substrate 1 μM
Procedure: Enzyme assays (except factor VIIa assays, see below) were conducted in 20 mM Tris, 150 mM NaCl, pH 7.4 (TBS) at room temperature (22° C.). The final volume for all reaction mixtures was 2.0 ml. […] Enzyme was added to mixtures containing buffer components and substrate and the initial rate of substrate hydrolysis was measured as the change in fluorescent intensity over time, corresponding to the generation of the particular 6-amino-1-naphthalenesulfonamide fluorophore from the provided substrate. […]
Param threshold (200 min) applies to Time (min) for 10% hydrolysis, u-PA; output criterion met when value >= threshold, criterion not met when value < threshold.

# LINE NOTATION, CLASS ASSIGNMENT
measured = [
    ("Br.CC(C)(C)NS(=O)(=O)c1cccc2cc(NC(=O)[C@H](CCCNC(=N)N)NC(=O)OCc3ccccc3)ccc12", "criterion met"),
    ("Br.CCCCCNS(=O)(=O)c1cccc2cc(NC(=O)[C@H](CCCNC(=N)N)NC(=O)OCc3ccccc3)ccc12", "criterion not met"),
    ("Br.CC(C)NS(=O)(=O)c1cccc2cc(NC(=O)[C@H](CCCNC(=N)N)NC(=O)OCc3ccccc3)ccc12", "criterion met"),
    ("Br.CNS(=O)(=O)c1cccc2cc(NC(=O)[C@H](CCCNC(=N)N)NC(=O)OCc3ccccc3)ccc12", "criterion met"),
    ("Br.N=C(N)NCCC[C@H](NC(=O)OCc1ccccc1)C(=O)Nc1ccc2c(S(=O)(=O)NCc3ccccc3)cccc2c1", "criterion not met"),
    ("Br.CCCNS(=O)(=O)c1cccc2cc(NC(=O)[C@H](CCCNC(=N)N)NC(=O)OCc3ccccc3)ccc12", "criterion met"),
]

====

Molecular target: factor Xa (Homo sapiens, UniProt P00742)
Sequence (P00742 235-488 limits assumed): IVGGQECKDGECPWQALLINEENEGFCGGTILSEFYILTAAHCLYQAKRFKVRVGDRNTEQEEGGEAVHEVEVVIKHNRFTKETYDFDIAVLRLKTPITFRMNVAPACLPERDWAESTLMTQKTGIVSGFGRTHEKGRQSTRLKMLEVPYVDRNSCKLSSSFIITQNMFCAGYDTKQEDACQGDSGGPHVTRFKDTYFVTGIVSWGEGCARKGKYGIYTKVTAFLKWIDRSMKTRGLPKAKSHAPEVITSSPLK
Sequence (P00742 41-179 limits assumed): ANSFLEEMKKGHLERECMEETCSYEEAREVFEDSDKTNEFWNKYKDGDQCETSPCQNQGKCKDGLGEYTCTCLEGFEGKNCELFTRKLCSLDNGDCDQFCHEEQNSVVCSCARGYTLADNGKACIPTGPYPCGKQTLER
Assay: Fluorogenic enzyme assay (Example 5)
Format: biochemical
Settings: Table 7
Param threshold (1000 M⁻¹ s⁻¹) applies to kcat /Km, Xa; output Condition met when value >= threshold, Condition not met when value < threshold.

# MOLECULE, TEST SYSTEM, CLASS ASSIGNMENT
measured = [
    ("Br.CC(C)NS(=O)(=O)c1cccc2cc(NC(=O)[C@H](CCCNC(=N)N)NC(=O)OCc3ccccc3)ccc12 [(N^α -Z)ArgANSNR1 R2; H; i-C3 H7]", "factor Xa (Homo sapiens, UniProt P00742)", "Condition not met"),
    ("Br.CNS(=O)(=O)c1cccc2cc(NC(=O)[C@H](CCCNC(=N)N)NC(=O)OCc3ccccc3)ccc12 [(N^α -Z)ArgANSNR1 R2; H; CH3]", "factor Xa (Homo sapiens, UniProt P00742)", "Condition not met"),
    ("Br.CCN(CC)S(=O)(=O)c1cccc2cc(NC(=O)[C@H](CCCNC(=N)N)NC(=O)OCc3ccccc3)ccc12 [(N^α -Z)ArgANSNR1 R2; C2 H5; C2 H5]", "factor Xa (Homo sapiens, UniProt P00742)", "Condition met"),
    ("Br.N=C(N)NCCC[C@H](NC(=O)OCc1ccccc1)C(=O)Nc1ccc2c(S(=O)(=O)NC3CCCCC3)cccc2c1 [(N^α -Z)ArgANSNR1 R2; H; cyclo-C6 H11]", "factor Xa (Homo sapiens, UniProt P00742)", "Condition not met"),
    ("Br.CC(C)(C)NS(=O)(=O)c1cccc2cc(NC(=O)[C@H](CCCNC(=N)N)NC(=O)OCc3ccccc3)ccc12 [(N^α -Z)ArgANSNR1 R2; H; t-C4 H9]", "factor Xa (Homo sapiens, UniProt P00742)", "Condition not met"),
]

====

Biological target: activated protein C (APC) (Homo sapiens)
Assay: Fluorogenic enzyme assay (Example 5)
Type: biochemical
Conditions: 100 nM enzyme (footnote b), substrate 1 μM
The following compounds are listed with their measured TIME TO 10% HYDROLYSIS (HOURS), APC values.

# COMPOUND, TEST SYSTEM, MEASURE UNIT, TIME TO 10% HYDROLYSIS (HOURS), APC
records = [
    ("CCN(CC)S(=O)(=O)c1cccc2cc(NC(=O)[C@H](CCCNC(=N)N)NC(=O)CNC(=O)[C@@H](CC(C)C)NS(C)(=O)=O)ccc12 [MesD-LPR-ANSN(C2 H5)2]", "activated protein C (APC) (Homo sapiens)", "h", 0.5),
    ("Br.Br.Br.CN(C)S(=O)(=O)c1cccc2cc(NC(=O)[C@H](CCCNC(=N)N)NC(=O)[C@@H](N)CCCCN)ccc12 [KR-ANSN(CH3)2]", "activated protein C (APC) (Homo sapiens)", "h", 8),
    ("CN(C)S(=O)(=O)c1cccc2cc(NC(=O)[C@H](CCCNC(=N)N)NC(=O)[C@H](CCCCNC(=O)OCc3ccccc3)NC(=O)OC(C)(C)C)ccc12 [(N^α -Boc,N^.cndot. -Z)KR-ANSN(CH23)2]", "activated protein C (APC) (Homo sapiens)", "h", 11),
    ("CN(C)S(=O)(=O)c1cccc2cc(NC(=O)[C@H](CCCNC(=N)N)NC(=O)[C@@H](N)CCCCNC(=O)OCc3ccccc3)ccc12.Cl.Cl [N^ω -AZ)KJR-ANSN(CH3)2]", "activated protein C (APC) (Homo sapiens)", "h", 5.5),
]
